- assaySummary: 384-well plate pilot, post-Golgi transport modulator project, inhibition of yeast transport mutant growth (AID 636); also: test concentration not given here
- conditionContext: absorbance 615 nm, about 18 h, active compounds read high
Recorded inhibition for the following compounds
Your answer should be a plain number; it is taken to be in %.

Example results:
{"compound": "Cc1cc(NCCN2CCCCC2)n2c(nc3ccccc32)c1C#N", "units": "%", "inhibition": -5.6}
{"compound": "C=CCSC1=C(C#N)C(c2ccccc2Cl)CC(=O)N1 (stereo unspecified)", "units": "%", "inhibition": 0.27}
{"compound": "CC1(C)CNC(=O)CC(C)(C)N1O", "units": "%", "inhibition": -1.43}

IN: Using the record for CCOC(=O)N1CCN(C(=O)COc2ccc(S(=O)(=O)NC3CCCCC3)cc2C)CC1 , state its measured inhibition.
OUT: -0.4

IN: Quickly give me recorded inhibition for CCOC(=O)CSC1=C(C#N)C(=O)NC(c2ccc(OC)c(OC)c2)S1 (stereo unspecified)
OUT: -4.79

IN: Dear colleague, please send me the reported inhibition for Cc1cc2c(c(=O)o1)C(Cc1ccccc1)C(C#N)=C(N)O2 (stereo unspecified) when you can.
OUT: 1.45
